Taken from patent US20100036088A1.

Tested on: human erythrocytes
EXPERIMENT: Hemolysis assay
Assay type: cell-based
Square brackets hold non-standard residues; d marks the D form. Peptide text beside a SMILES is read from it. Nspe = C[C@H](NCC(=O)O)c1ccccc1; Nlys = NCCCCNCC(=O)O
MEASUREMENT TYPE: HD10 (µM)
Your answer should be a plain number; it is taken to be in µM.

IN: For the molecule C[C@@H](c1ccccc1)N(CC(N)=O)C(=O)CN(C(=O)CN(CCCCN)C(=O)CN(C(=O)CN(C(=O)CN(CCCCN)C(=O)[C@@H]1CCCN1C(=O)CN(C(=O)CN(CCCCN)C(=O)CN(C(=O)CN(C(=O)CNCCCCN)[C@@H](C)c1ccccc1)[C@@H](C)c1ccccc1)[C@@H](C)c1ccccc1)[C@@H](C)c1ccccc1)[C@@H](C)c1ccccc1)[C@@H](C)c1ccccc1 [1-Pro6] (H-[Nlys][Nspe][Nspe][Nlys][Nspe]P[Nlys][Nspe][Nspe][Nlys][Nspe][Nspe]-NH2) , what HD10 is on record?
OUT: 83

* * *

EXPERIMENT: MTS assay, metabolic inhibition
Type: cell-based, mouse
Square brackets hold non-standard residues; d marks the D form. Peptide text beside a SMILES is read from it. Nspe = C[C@H](NCC(=O)O)c1ccccc1; Nlys = NCCCCNCC(=O)O
Reported IC50 values for the following compounds.
Number first, unit second: that is the form wanted.

compound="C[C@H](NCC(=O)N(CCCCN)CC(=O)N(CC(=O)N(CC(=O)N(CCCCN)CC(=O)N(CC(=O)N(CC(=O)N(CCCCN)CC(=O)N(CC(=O)N(CC(=O)N(CCCCN)CC(=O)N(CC(N)=O)[C@@H](C)c1ccccc1)[C@@H](C)c1ccccc1)[C@@H](C)c1ccccc1)[C@@H](C)c1ccccc1)[C@@H](C)c1ccccc1)[C@@H](C)c1ccccc1)[C@@H](C)c1ccccc1)c1ccccc1 [1B, H-(Nspe-Nlys-Nspe)4-NH2] (H-[Nspe][Nlys][Nspe][Nspe][Nlys][Nspe][Nspe][Nlys][Nspe][Nspe][Nlys][Nspe]-NH2)" measurement_type=IC50 meas_value="4.9 µM"

Consider now this further compound.
IN: For the compound C[C@@H](c1ccccc1)N(CC(N)=O)C(=O)CN(C(=O)CN(CCCCN)C(=O)CN(Cc1ccccc1)C(=O)CN(Cc1ccccc1)C(=O)CN(CCCCN)C(=O)CN(C(=O)CN(C(=O)CN(CCCCN)C(=O)CN(Cc1ccccc1)C(=O)CN(Cc1ccccc1)C(=O)CNCCCCN)[C@@H](C)c1ccccc1)[C@@H](C)c1ccccc1)[C@@H](C)c1ccccc1 , what IC50 is on record?
OUT: 15 µM

* * *

Tested on: human erythrocytes
EXPERIMENT: Hemolysis assay
Format: cell-based
CONDITION CONTEXT: Table 6
Square brackets hold non-standard residues; d marks the D form. Peptide text beside a SMILES is read from it. Nrpe = C[C@@H](NCC(=O)O)c1ccccc1; Nspe = C[C@H](NCC(=O)O)c1ccccc1; Nlys = NCCCCNCC(=O)O
MEASUREMENT TYPE: HD50 (µM)
Your answer should be a plain number; it is taken to be in µM.

compound="C[C@H](c1ccccc1)N(CC(=O)N(CCCCN)CC(=O)N(CC(=O)N(CC(=O)N(CCCCN)CC(=O)N(CC(=O)N(CC(=O)N(CCCCN)CC(=O)N(CC(=O)N(CC(N)=O)[C@@H](C)c1ccccc1)[C@@H](C)c1ccccc1)[C@@H](C)c1ccccc1)[C@@H](C)c1ccccc1)[C@H](C)c1ccccc1)[C@H](C)c1ccccc1)C(=O)CN(C(=O)CNCCCCN)[C@H](C)c1ccccc1 [1-Nrpe2,3,5,6] (H-[Nlys][Nrpe][Nrpe][Nlys][Nrpe][Nrpe][Nlys][Nspe][Nspe][Nlys][Nspe][Nspe]-NH2)" meas_value=96
compound="C[C@@H](c1ccccc1)N(CC(N)=O)C(=O)CN(C(=O)CN(CCCCN)C(=O)CN(C(=O)CN(C(=O)CN(CCCCN)C(=O)CN(C(=O)CN(C(=O)CN(CCCCN)C(=O)CN(C(=O)CN(C(=O)CNCCCCN)[C@@H](C)c1ccccc1)[C@@H](C)c1ccccc1)[C@@H](C)c1ccccc1)[C@@H](C)c1ccccc1)[C@@H](C)c1ccccc1)[C@@H](C)c1ccccc1)[C@@H](C)c1ccccc1 [compound 1, H-(NLys-Nspe-Nspe)4-NH2] (H-[Nlys][Nspe][Nspe][Nlys][Nspe][Nspe][Nlys][Nspe][Nspe][Nlys][Nspe][Nspe]-NH2)" meas_value=100
compound="C[C@H](c1ccccc1)N(CC(=O)N(CC(N)=O)[C@@H](C)c1ccccc1)C(=O)CN(CCCCN)C(=O)CN(C(=O)CN(C(=O)CN(CCCCN)C(=O)CN(C(=O)CN(C(=O)CN(CCCCN)C(=O)CN(C(=O)CN(C(=O)CNCCCCN)[C@H](C)c1ccccc1)[C@@H](C)c1ccccc1)[C@H](C)c1ccccc1)[C@@H](C)c1ccccc1)[C@H](C)c1ccccc1)[C@@H](C)c1ccccc1 [1-Nrpe2,5,8,11, H-(Nlys-Nrpe-Nspe)4-NH2] (H-[Nlys][Nrpe][Nspe][Nlys][Nrpe][Nspe][Nlys][Nrpe][Nspe][Nlys][Nrpe][Nspe]-NH2)" meas_value=95

IN: For the compound C[C@H](c1ccccc1)N(CC(N)=O)C(=O)CN(C(=O)CN(CCCCN)C(=O)CN(C(=O)CN(C(=O)CN(CCCCN)C(=O)CN(C(=O)CN(C(=O)CN(CCCCN)C(=O)CN(C(=O)CN(C(=O)CNCCCCN)[C@@H](C)c1ccccc1)[C@H](C)c1ccccc1)[C@@H](C)c1ccccc1)[C@H](C)c1ccccc1)[C@@H](C)c1ccccc1)[C@H](C)c1ccccc1)[C@@H](C)c1ccccc1 , what HD50 is on record?
OUT: 67

* * *

Reported MIC Escherichia coli ATCC 25922 values for the following compounds.
Tested on: Escherichia coli ATCC 25922
Assay type: cell-based
CONDITION CONTEXT: ATCC 25922
Numbered stars: 1 amine (or outer) side, 2 acyl side, 3 side chain; on linkers, the order of the positions; unused ones are H or OH. Square brackets hold non-standard residues; d marks the D form. Peptide text beside a SMILES is read from it. X1 = CC(C)[C@H](C)N(CC(=O)[*:2])[*:1]; Nspe = C[C@H](NCC(=O)O)c1ccccc1; Nphe = O=C(O)CNCc1ccccc1; Nlys = NCCCCNCC(=O)O
Your answer should be a plain number; it is taken to be in µM.

Below are worked cases with known answers.
compound="C[C@@H](c1ccccc1)N(CC(N)=O)C(=O)CN(Cc1ccccc1)C(=O)CN(CCCCN)C(=O)CN(C(=O)CN(Cc1ccccc1)C(=O)CN(CCCCN)C(=O)CN(C(=O)CN(Cc1ccccc1)C(=O)CN(CCCCN)C(=O)CN(C(=O)CN(Cc1ccccc1)C(=O)CNCCCCN)[C@@H](C)c1ccccc1)[C@@H](C)c1ccccc1)[C@@H](C)c1ccccc1 [1-Npm2,5,8,11, H-(Nlys-Npm-Nspe)4-NH2] (H-[Nlys][Nphe][Nspe][Nlys][Nphe][Nspe][Nlys][Nphe][Nspe][Nlys][Nphe][Nspe]-NH2)" endpoint_unit=µM meas_value=4.5
compound="NCCCCNCC(=O)N(CC(=O)N(CC(=O)N(CCCCN)CC(=O)N(CC(=O)N(CC(=O)N(CCCCN)CC(=O)N(CC(=O)N(CC(=O)N(CCCCN)CC(=O)N(CC(=O)N(CC(N)=O)Cc1ccccc1)Cc1ccccc1)Cc1ccccc1)Cc1ccccc1)Cc1ccccc1)Cc1ccccc1)Cc1ccccc1)Cc1ccccc1 [1achiral, H-(Nlys-Npm-Npm)4-NH2] (H-[Nlys][Nphe][Nphe][Nlys][Nphe][Nphe][Nlys][Nphe][Nphe][Nlys][Nphe][Nphe]-NH2)" endpoint_unit=µM meas_value=9.4
compound="CC(C)[C@H](C)N(CC(=O)N(CC(=O)N(CCCCN)CC(=O)N(CC(=O)N(CC(=O)N(CCCCN)CC(=O)N(CC(=O)N(CC(=O)N(CCCCN)CC(=O)N(CC(=O)N(CC(N)=O)[C@@H](C)c1ccccc1)[C@@H](C)C(C)C)[C@@H](C)c1ccccc1)[C@@H](C)C(C)C)[C@@H](C)c1ccccc1)[C@@H](C)C(C)C)[C@@H](C)c1ccccc1)C(=O)CNCCCCN [1-Nsdp2,5,8,11, H-(Nlys-Nsdp-Nspe)4-NH2] (H-[Nlys][X1][Nspe][Nlys][X1][Nspe][Nlys][X1][Nspe][Nlys][X1][Nspe]-NH2)" endpoint_unit=µM meas_value=4.8

IN: For the compound C[C@@H](c1ccccc1)N(CC(N)=O)C(=O)CN(C(=O)CN(CCCCN)C(=O)[C@@H]1CCCN1C(=O)CN(C(=O)CN(CCCCN)C(=O)CN(C(=O)CN(C(=O)CN(CCCCN)C(=O)CN(C(=O)CN(C(=O)CNCCCCN)[C@@H](C)c1ccccc1)[C@@H](C)c1ccccc1)[C@@H](C)c1ccccc1)[C@@H](C)c1ccccc1)[C@@H](C)c1ccccc1)[C@@H](C)c1ccccc1 [1-Pro9] (H-[Nlys][Nspe][Nspe][Nlys][Nspe][Nspe][Nlys][Nspe]P[Nlys][Nspe][Nspe]-NH2) , what MIC Escherichia coli ATCC 25922 is on record?
OUT: 4.6

IN: For the compound C[C@@H](c1ccccc1)N(CC(N)=O)C(=O)CN(C(=O)CN(CCCCN)C(=O)CN(C(=O)CN(C(=O)CN(CCCCN)C(=O)[C@@H]1CCCN1C(=O)CN(C(=O)CN(CCCCN)C(=O)CN(C(=O)CN(C(=O)CNCCCCN)[C@@H](C)c1ccccc1)[C@@H](C)c1ccccc1)[C@@H](C)c1ccccc1)[C@@H](C)c1ccccc1)[C@@H](C)c1ccccc1)[C@@H](C)c1ccccc1 [1-Pro6] (H-[Nlys][Nspe][Nspe][Nlys][Nspe]P[Nlys][Nspe][Nspe][Nlys][Nspe][Nspe]-NH2) , what MIC Escherichia coli ATCC 25922 is on record?
OUT: 9.1
